biological target: NMDA receptor composed of four subunits including 2 sets of heterodimers of NR1 and NR2B (Homo sapiens); construct: host or cells: HEK293 (tetracycline-induced expression); experiment: NR2B Ca2+ influx assay (FLIPR, Fluo-4) in HEK293 cells expressing human GRIN1 and GRIN2B; format: cell-based; settings: HEK293, 10 μM final compound concentration, glutamic acid/glycine-induced Ca2+ influx, read-out: inhibitory rate (10 μM compound concentration)
Sequence (Q13224 27-1484, other chains not shown): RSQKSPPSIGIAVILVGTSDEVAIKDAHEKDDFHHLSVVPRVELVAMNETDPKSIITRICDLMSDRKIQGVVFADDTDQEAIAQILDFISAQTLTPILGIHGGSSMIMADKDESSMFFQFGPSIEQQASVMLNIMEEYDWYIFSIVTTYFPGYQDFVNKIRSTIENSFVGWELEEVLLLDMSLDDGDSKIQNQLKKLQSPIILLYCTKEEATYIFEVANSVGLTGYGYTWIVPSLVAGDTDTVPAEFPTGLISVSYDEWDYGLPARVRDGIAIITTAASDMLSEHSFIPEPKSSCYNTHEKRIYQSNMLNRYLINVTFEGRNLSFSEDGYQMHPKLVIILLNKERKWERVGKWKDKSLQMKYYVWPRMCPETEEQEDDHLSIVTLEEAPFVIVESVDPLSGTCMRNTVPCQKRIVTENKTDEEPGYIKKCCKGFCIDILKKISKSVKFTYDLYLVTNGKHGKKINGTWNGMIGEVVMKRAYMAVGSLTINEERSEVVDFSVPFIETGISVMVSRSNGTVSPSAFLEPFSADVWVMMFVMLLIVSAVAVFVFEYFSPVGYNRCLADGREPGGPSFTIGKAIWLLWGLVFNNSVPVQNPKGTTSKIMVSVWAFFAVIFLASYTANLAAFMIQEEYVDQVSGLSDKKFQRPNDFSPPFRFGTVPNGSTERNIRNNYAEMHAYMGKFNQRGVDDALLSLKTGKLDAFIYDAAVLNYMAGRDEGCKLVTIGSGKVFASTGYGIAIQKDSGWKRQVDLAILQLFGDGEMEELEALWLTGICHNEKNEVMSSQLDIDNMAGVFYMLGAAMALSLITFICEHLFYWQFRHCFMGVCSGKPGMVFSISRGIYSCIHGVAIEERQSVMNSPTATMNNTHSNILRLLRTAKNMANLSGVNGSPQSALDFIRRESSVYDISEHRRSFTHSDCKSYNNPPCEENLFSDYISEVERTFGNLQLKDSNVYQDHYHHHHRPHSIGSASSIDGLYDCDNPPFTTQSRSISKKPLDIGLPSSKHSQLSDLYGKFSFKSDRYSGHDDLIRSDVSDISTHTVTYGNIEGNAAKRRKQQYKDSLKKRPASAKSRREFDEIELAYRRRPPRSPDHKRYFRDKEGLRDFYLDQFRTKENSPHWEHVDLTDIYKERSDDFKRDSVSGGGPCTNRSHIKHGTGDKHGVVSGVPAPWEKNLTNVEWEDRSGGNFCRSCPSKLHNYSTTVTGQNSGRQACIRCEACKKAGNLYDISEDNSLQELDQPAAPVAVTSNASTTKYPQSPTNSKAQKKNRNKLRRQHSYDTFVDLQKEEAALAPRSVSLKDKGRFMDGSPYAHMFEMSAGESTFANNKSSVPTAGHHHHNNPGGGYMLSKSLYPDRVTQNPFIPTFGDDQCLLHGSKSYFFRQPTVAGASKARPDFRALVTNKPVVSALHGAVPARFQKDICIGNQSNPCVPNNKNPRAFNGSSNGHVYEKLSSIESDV
Answer each item with its documented inhibition at 10 µM.
Give bare numbers, in %.

Solved cases below.
Respond only with inhibition at 10 µM recorded for COc1ccc2ncn(C)c2c1CNC(=O)c1cc(F)c(OC)c(F)c1 [Example 8]
92

Check the records and state inhibition at 10 µM for COc1ccc2ncn(C)c2c1CNC(=O)Nc1cc(F)c(F)c(F)c1 [Example 220]
87

For COc1ccc2nc(C)n(C)c2c1CNC(=O)c1csc(C(F)(F)F)c1 [Example 230] , write its inhibition at 10 µM.
82

Report inhibition at 10 µM, nothing else, for this compound: COc1ccc(C(=O)NCc2c(C3CC3)ccc3[nH]ncc23)cc1F [Example 94]
93

Tell us which inhibition at 10 µM value is on record for O=C(NCc1c(C2CC2)ccc2[nH]ncc12)c1cc(F)c(F)c(F)c1 [Example 79]
92

Specify reported inhibition at 10 µM for the compound shown: COc1ccc2ncn(C)c2c1CNC(=O)c1ccc(OC(F)(F)F)cc1 [Example 12]
94

Please give inhibition at 10 µM for each item listed below.
1. COc1ncc(C(=O)NCc2cccc3[nH]ncc23)cc1F [Example 172]
2. COc1ccc(C(=O)NCc2c(C3CC3)ccc3[nH]ncc23)cc1 [Example 101]
3. O=C(NCc1c(C2CC2)ccc2[nH]ncc12)c1ccc(Cl)s1 [Example 71]

60
92
92
